The entries below come with measured IC50 values attached.
system: KRas-mediated Phosphorylation of ERK in PSN1 cells; assay: Cisbio HTRF pERK assay, PSN1 cells; format: cell-based; conditions: Homo sapiens, PSN1, 3 h, 3 hour compound, read-out: Inhibition (HTRF IC50 nM) of KRas-mediated Phosphorylation of ERK, PSN1

// solved cases for IC50 follow
MOLECULE	SYSTEM_UNDER_TEST	IC50
N#Cc1c(N)sc2c(F)ccc(-c3c(Cl)cc4c(N5CCCOCC5)nc(OC[C@@]56CCCN5C[C@H](F)C6)nc4c3F)c12 [Example 211]	KRas-mediated Phosphorylation of ERK in PSN1 cells	1270 nM
CN(c1nc(OC[C@@]23CCCN2C[C@H](F)C3)nc2c(F)c(-c3ccc(F)c4sc(N)c(C#N)c34)c(Cl)cc12)[C@H]1C[C@@H]1F [Example 202]	KRas-mediated Phosphorylation of ERK in PSN1 cells	3350 nM
N#Cc1c(N)sc2c(F)ccc(-c3c(Cl)cc4c(NCC5CS(=O)(=O)C5)nc(OC[C@@]56CCCN5C[C@H](F)C6)nc4c3F)c12 [Example 222]	KRas-mediated Phosphorylation of ERK in PSN1 cells	> 10000 nM
N#Cc1c(N)sc2c(F)ccc(-c3c(Cl)cc4c(NCc5cn[nH]c5)nc(OC[C@@]56CCCN5C[C@H](F)C6)nc4c3F)c12 [Example 199]	KRas-mediated Phosphorylation of ERK in PSN1 cells	3860 nM
N#Cc1c(N)sc2c(F)ccc(-c3c(Cl)cc4c(N5CC6CCC(C5)N6)nc(OC[C@@]56CCCN5C/C(=C\F)C6)nc4c3F)c12 [Example 180]	KRas-mediated Phosphorylation of ERK in PSN1 cells	1370 nM
N#Cc1c(N)sc2c(F)ccc(-c3c(Cl)cc4c(NCCO)nc(OC[C@@]56CCCN5C[C@H](F)C6)nc4c3F)c12 [Example 205]	KRas-mediated Phosphorylation of ERK in PSN1 cells	7120 nM
N#Cc1c(N)sc2c(F)ccc(-c3c(Cl)cc4c(N5CC(O)C5)nc(OC[C@@]56CCCN5C[C@H](F)C6)nc4c3F)c12 [Example 219]	KRas-mediated Phosphorylation of ERK in PSN1 cells	> 10000 nM

// below: IC50 requested for another molecule
Q) Kindly state the measured IC50 obtained for N#Cc1c(N)sc2c(F)ccc(-c3c(Cl)cc4c(N5CCCCC(F)C5)nc(OC[C@@]56CCCN5C[C@H](F)C6)nc4c3F)c12 (some centres unmarked) [Example 204] with KRas-mediated Phosphorylation of ERK in PSN1 cells.
A) 1180 nM

* * *

tested on: KRas-mediated Phosphorylation of ERK in AsPC-1 cells; assay: Cisbio HTRF pERK assay, AsPC-1 cells; type: cell-based; conditions: Homo sapiens, ASPC1, single point at 100 nM
Rule: class 1 for inhibition at 0.1 µM not less than 90%, class 0 for anything less.

Look over these answered cases.
COMPOUND	CATEGORY_LABEL
CCc1c(F)ccc2cc(O)cc(-c3ccc4c(N5CCCn6nc(C(=O)N(C)C)c(Cl)c6C5)nc(OC[C@@]56CCCN5C[C@H](F)C6)nc4c3F)c12	class 1
CCc1c(F)ccc2cc(O)cc(-c3c(F)cc4c(N5CCCC6(CCO6)C5)nc(OC[C@@]56CCCN5C[C@H](F)C6)nc4c3F)c12 (stereo partly drawn)	class 0
CCc1c(F)ccc2cc(O)cc(-c3c(F)cc4c(N5CCCC6(CCO6)C5)nc(OCC5(CN(C)C)CC5)nc4c3F)c12 (stereo not drawn)	class 0

Q) Please check the record CCc1c(F)ccc2cc(O)cc(-c3ccc4c(N5CCCn6nc(C(=O)N7CCOCC7)c(Cl)c6C5)nc(OC[C@@]56CCCN5C[C@H](F)C6)nc4c3F)c12 and state if its inhibition at 0.1 µM is at or above 90%.
A) class 1

Q) Is inhibition at 0.1 µM for CCc1c(F)ccc2cc(O)cc(-c3c(F)cc4c(N5CCCn6nc(C(=O)N(C)C)c(Cl)c6C5)nc(OC[C@@]56CCCN5C[C@H](F)C6)nc4c3F)c12 at or above 90%?
A) class 1

Q) Threshold query (inhibition at 0.1 µM >= 90%) on CCc1c(F)ccc2cc(O)cc(-c3ccc4c(N5CCCn6nc(C(=O)N(C)C)c(C)c6C5)nc(OC[C@@]56CCCN5C[C@H](F)C6)nc4c3F)c12
A) class 1
